self-splicing fitness (ln) by entry:
Assay: self-splicing fitness, log relative to wild type (ln ratio); higher = more splicing; Tetrahymena group I intron in knt gene, E. coli kanamycin selection, DiMSum; sequences stand for … in CUCUCU…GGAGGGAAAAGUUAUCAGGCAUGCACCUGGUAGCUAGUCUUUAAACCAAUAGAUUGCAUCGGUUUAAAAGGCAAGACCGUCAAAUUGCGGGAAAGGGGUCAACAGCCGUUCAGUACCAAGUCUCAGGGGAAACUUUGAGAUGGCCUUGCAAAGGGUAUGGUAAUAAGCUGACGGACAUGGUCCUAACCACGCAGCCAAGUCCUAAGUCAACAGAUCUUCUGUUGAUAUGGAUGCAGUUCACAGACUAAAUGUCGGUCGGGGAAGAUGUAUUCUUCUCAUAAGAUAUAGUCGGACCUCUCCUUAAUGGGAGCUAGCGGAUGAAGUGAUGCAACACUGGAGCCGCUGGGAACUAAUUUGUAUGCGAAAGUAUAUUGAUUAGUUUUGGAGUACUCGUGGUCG;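 further: selection with 25 µg/mL kanamycin versus none on LB agar overnight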
Conditions: 37 °C

Solved cases (4 shown):
>>> result("ACGAAGCAAUAUUACGUGAG")
-1.14
>>> result("GCCCAGCAAUAUUACGUUCA")
-0.504
>>> result("UGAGAGCAAUAUUACGACGU")
-1.78
>>> result("UAUCAGCAAUAUUACGAAGA")
-0.91

INPUT: Output self-splicing fitness (ln) of UACCAGCAAUAUUACGAAGU
OUTPUT: -2.74

INPUT: Output self-splicing fitness (ln) of AGAGAGCAAUAUUACGGUCA
OUTPUT: -1.97

INPUT: Output self-splicing fitness (ln) of GAUAAGCAAUAUUACGGGGG
OUTPUT: -3.04

INPUT: Output self-splicing fitness (ln) of AGAUAGCAAUAUUACGAGGU
OUTPUT: -2.17

INPUT: Output self-splicing fitness (ln) of UUGCAGCAAUAUUACGUGCA
OUTPUT: -1.27

INPUT: Output self-splicing fitness (ln) of GUCUAGCAAUAUUACGCAGG
OUTPUT: -3.31

INPUT: Output self-splicing fitness (ln) of CCUUAGCAAUAUUACGGCGA
OUTPUT: -1.96
